Lab note: pKi readings collected with D(3) dopamine receptor (Homo sapiens, UniProt P35462) for the following compounds.
Sequence (P35462 whole entry): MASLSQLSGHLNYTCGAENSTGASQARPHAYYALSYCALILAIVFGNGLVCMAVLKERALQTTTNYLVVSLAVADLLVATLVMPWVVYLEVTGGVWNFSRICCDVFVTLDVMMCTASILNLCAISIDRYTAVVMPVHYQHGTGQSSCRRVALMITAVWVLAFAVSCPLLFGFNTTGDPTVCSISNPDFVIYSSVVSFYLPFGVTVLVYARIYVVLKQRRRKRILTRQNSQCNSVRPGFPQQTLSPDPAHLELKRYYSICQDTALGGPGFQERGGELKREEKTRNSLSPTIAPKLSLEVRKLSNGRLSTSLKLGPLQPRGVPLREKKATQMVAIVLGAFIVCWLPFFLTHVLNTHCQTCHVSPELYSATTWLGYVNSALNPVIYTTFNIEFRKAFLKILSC
pKi: −log10 of the molar value.
Assay readout: pKi

{"Compound": "COc1ccc(S(N)(=O)=O)cc1-c1ccc(CN2CCCCCC2c2ccccc2)[nH]1 (stereo unspecified)", "Measured result": 7.40}
{"Compound": "COc1ccc(S(=O)(=O)Cc2ccccc2)cc1-c1ccc(CN2CCCCCC2c2ccccc2)[nH]1 (stereo unspecified)", "Measured result": 8.40}
{"Compound": "CCN(Cc1ccccc1)S(=O)(=O)c1ccc(OC)c(-c2ccc(CN3CCCCCC3c3ccccc3)[nH]2)c1 (stereo unspecified)", "Measured result": 8.20}
{"Compound": "COc1ccc(S(=O)(=O)N2CCc3ccccc3C2)cc1-c1ccc(CN2CCCCCC2c2ccccc2)[nH]1 (stereo unspecified)", "Measured result": 8.70}
{"Compound": "COc1ccc(S(=O)(=O)N(C)c2ccccc2)cc1-c1ccc(CN2CCCCC[C@H]2c2ccccc2)[nH]1", "Measured result": 7.80}
{"Compound": "COc1ccc(S(=O)(=O)N2CCOCC2)cc1-c1ccc(CN2CCCCCC2c2ccccc2)[nH]1 (stereo unspecified)", "Measured result": 8.80}
{"Compound": "CCS(=O)(=O)c1ccc(OC)c(-c2ccc(CN3CCCCC[C@@H]3c3ccccc3)[nH]2)c1", "Measured result": 9.10}
{"Compound": "COc1ccc(S(=O)(=O)C(C)C)cc1-c1ccc(CN2CCCCCC2c2ccccc2)[nH]1 (stereo unspecified)", "Measured result": 8.30}
{"Compound": "CCS(=O)(=O)c1ccc(OC)c(-c2ccc(CN3CCCCC[C@H]3c3ccccc3)[nH]2)c1", "Measured result": 8.40}
{"Compound": "COc1ccc(S(=O)(=O)N(C)c2ccccc2)cc1-c1ccc(CN2CCCCC[C@@H]2c2ccccc2)[nH]1", "Measured result": 8.40}
{"Compound": "COc1ccc(S(=O)(=O)N2CCCc3ccccc32)cc1-c1ccc(CN2CCCCCC2c2ccccc2)[nH]1 (stereo unspecified)", "Measured result": 8.20}

* * *

- Experimental target: Dopamine receptors; D2 & D3 (Homo sapiens) (UniProt P14416+P35462)
- Test summary: Ratio of human dopamine D3 receptor to that of human dopamine D2 receptor was evaluated
- Assay type: protein assay
Entries annotated with measured Selectivity
Assay readout: Selectivity

{"Molecule": "COc1ccc(S(N)(=O)=O)cc1-c1ccc(CN2CCCCCC2c2ccccc2)[nH]1 (configuration not stated)", "Measured result": 10}
{"Molecule": "COc1ccc(S(=O)(=O)Nc2ccccc2)cc1-c1ccc(CN2CCCCCC2c2ccccc2)[nH]1 (configuration not stated)", "Measured result": 8}
{"Molecule": "COc1ccc(S(=O)(=O)N(C)c2ccccc2)cc1-c1ccc(CN2CCCCCC2c2ccccc2)[nH]1 (configuration not stated)", "Measured result": 100}
{"Molecule": "COc1ccc(S(=O)(=O)N(C)c2ccccc2)cc1-c1ccc(CN2CCCCC[C@@H]2c2ccccc2)[nH]1", "Measured result": 125}
{"Molecule": "COc1ccc(S(=O)(=O)N(C)c2ccccc2)cc1-c1ccc(CN2CCCCC[C@H]2c2ccccc2)[nH]1", "Measured result": 100}
{"Molecule": "COc1ccc(S(=O)(=O)N(C)C)cc1-c1ccc(CN2CCCCCC2c2ccccc2)[nH]1 (configuration not stated)", "Measured result": 50}
{"Molecule": "COc1ccc(S(=O)(=O)N2CCCc3ccccc32)cc1-c1ccc(CN2CCCCCC2c2ccccc2)[nH]1 (configuration not stated)", "Measured result": 150}
{"Molecule": "COc1ccc(S(=O)(=O)Cc2ccccc2)cc1-c1ccc(CN2CCCCCC2c2ccccc2)[nH]1 (configuration not stated)", "Measured result": 30}
{"Molecule": "CCS(=O)(=O)c1ccc(OC)c(-c2ccc(CN3CCCCC[C@@H]3c3ccccc3)[nH]2)c1", "Measured result": 30}
{"Molecule": "CCS(=O)(=O)c1ccc(OC)c(-c2ccc(CN3CCCCC[C@H]3c3ccccc3)[nH]2)c1", "Measured result": 25}
{"Molecule": "COc1ccc(S(=O)(=O)C(C)C)cc1-c1ccc(CN2CCCCCC2c2ccccc2)[nH]1 (configuration not stated)", "Measured result": 40}
{"Molecule": "COc1ccc(S(=O)(=O)N2CCOCC2)cc1-c1ccc(CN2CCCCCC2c2ccccc2)[nH]1 (configuration not stated)", "Measured result": 60}
